experiment: in vivo; conditions: male, OF1, mouse, po
Where a SMILES comes first, the peptide text is derived from it. [ ]: non-standard residue; d: D form. NMeL = CN[C@@H](CC(C)C)C(=O)O; dNMeL = CN[C@H](CC(C)C)C(=O)O
reported-property: bioavailability

Query block: Suppose we examine the molecule CC(C)C[C@@H]1NC(=O)[C@H](Cc2ccccc2)NC(=O)[C@H]2CCCN2C(=O)[C@H](CC(C)C)NC(=O)[C@H](CC(C)C)N(C)C(=O)[C@@H](CC(C)C)N(C)C1=O [(3), [Phe-Leu-NMe-D-Leu-NMe-Leu-Leu-D-Pro]] (cyclo(FL[dNMeL][NMeL]L[dP])) ; what bioavailability value has been reported?
Result block: 7%

###

Quick list: clearance per entry.
conditions: mouse, in vivo, iv, 1 mg/kg
Where a SMILES comes first, the peptide text is derived from it. [ ]: non-standard residue; d: D form. NMeL = CN[C@@H](CC(C)C)C(=O)O; dNMeL = CN[C@H](CC(C)C)C(=O)O; Abu = CC[C@H](N)C(=O)O
Answer in mL/min/kg, number only, no unit symbol.

Query block: Suppose we examine the compound CC(C)C[C@@H]1NC(=O)[C@H](C)NC(=O)[C@H]2CCCN2C(=O)[C@H](CC(C)C)NC(=O)[C@H](CC(C)C)N(C)C(=O)[C@@H](CC(C)C)N(C)C1=O [(5), [Ala-Leu-NMe-D-Leu-NMe-Leu-Leu-D-Pro]] (cyclo(AL[dNMeL][NMeL]L[dP])) ; what clearance value has been reported?
Result block: 105

Query block: Check CC[C@@H]1NC(=O)[C@H]2CCCN2C(=O)[C@H](CC(C)C)NC(=O)[C@H](CC(C)C)N(C)C(=O)[C@@H](CC(C)C)N(C)C(=O)[C@H](CC(C)C)NC1=O [(4), [Abu-Leu-NMe-D-Leu-NMe-Leu-Leu-D-Pro]] (cyclo([Abu]L[dNMeL][NMeL]L[dP])) too.
Result block: 49

Query block: Check CC(C)C[C@@H]1NC(=O)[C@H](Cc2ccccc2)NC(=O)[C@H]2CCCN2C(=O)[C@H](CC(C)C)NC(=O)[C@H](CC(C)C)N(C)C(=O)[C@@H](CC(C)C)N(C)C1=O [(3), [Phe-Leu-NMe-D-Leu-NMe-Leu-Leu-D-Pro]] (cyclo(FL[dNMeL][NMeL]L[dP])) too.
Result block: 2

###

settings: rat, in vivo, po, 3 mg/kg, Jugular vein (AuC)
Where a SMILES comes first, the peptide text is derived from it. [ ]: non-standard residue; d: D form. NMeL = CN[C@@H](CC(C)C)C(=O)O; dNMeL = CN[C@H](CC(C)C)C(=O)O; Abu = CC[C@H](N)C(=O)O
Quick list: AUC per entry.
Answer in µM·h, number only, no unit symbol.

compound="CC(C)C[C@@H]1NC(=O)[C@H](C)NC(=O)[C@H]2CCCN2C(=O)[C@H](CC(C)C)NC(=O)[C@H](CC(C)C)N(C)C(=O)[C@@H](CC(C)C)N(C)C1=O [(5), [Ala-Leu-NMe-D-Leu-NMe-Leu-Leu-D-Pro]] (cyclo(AL[dNMeL][NMeL]L[dP]))" val=0.104

Note: attention shifts to another entry.
Query block: Suppose we examine the compound CC[C@@H]1NC(=O)[C@H]2CCCN2C(=O)[C@H](CC(C)C)NC(=O)[C@H](CC(C)C)N(C)C(=O)[C@@H](CC(C)C)N(C)C(=O)[C@H](CC(C)C)NC1=O [(4), [Abu-Leu-NMe-D-Leu-NMe-Leu-Leu-D-Pro]] (cyclo([Abu]L[dNMeL][NMeL]L[dP])) ; what AUC value has been reported?
Result block: 1.66
